# experimental_protocol: Inhibition of human GABA-gated Cl- channel assessed as inhibition constant
pKi: −log10 of the molar value.

compound_structure | pKi
Clc1cc2c(NC3CCCC3)nnc(-c3ccncc3)c2cc1Cl | 5.74

---

# assayed_system: Substance-K receptor (Homo sapiens)
# Sequence (P21452 whole entry): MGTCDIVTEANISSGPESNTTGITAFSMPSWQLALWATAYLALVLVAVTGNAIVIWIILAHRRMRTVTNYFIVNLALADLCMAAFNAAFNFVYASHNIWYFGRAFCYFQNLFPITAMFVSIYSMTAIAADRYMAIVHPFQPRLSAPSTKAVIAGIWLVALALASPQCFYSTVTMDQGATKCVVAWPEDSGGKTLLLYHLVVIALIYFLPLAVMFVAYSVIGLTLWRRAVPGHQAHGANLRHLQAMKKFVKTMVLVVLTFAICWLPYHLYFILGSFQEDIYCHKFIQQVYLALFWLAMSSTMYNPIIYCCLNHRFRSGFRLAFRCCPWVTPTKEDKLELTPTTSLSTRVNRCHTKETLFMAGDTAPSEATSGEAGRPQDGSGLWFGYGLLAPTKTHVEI
property_name: Ki (µM)

compound_structure | endpoint_unit | measured
Clc1cc2c(NC3CCCC3)nnc(-c3ccncc3)c2cc1Cl | µM | 4.1

---

# assayed_system: Kappa-type opioid receptor (Homo sapiens, UniProt P41145)
# Sequence (P41145 whole entry): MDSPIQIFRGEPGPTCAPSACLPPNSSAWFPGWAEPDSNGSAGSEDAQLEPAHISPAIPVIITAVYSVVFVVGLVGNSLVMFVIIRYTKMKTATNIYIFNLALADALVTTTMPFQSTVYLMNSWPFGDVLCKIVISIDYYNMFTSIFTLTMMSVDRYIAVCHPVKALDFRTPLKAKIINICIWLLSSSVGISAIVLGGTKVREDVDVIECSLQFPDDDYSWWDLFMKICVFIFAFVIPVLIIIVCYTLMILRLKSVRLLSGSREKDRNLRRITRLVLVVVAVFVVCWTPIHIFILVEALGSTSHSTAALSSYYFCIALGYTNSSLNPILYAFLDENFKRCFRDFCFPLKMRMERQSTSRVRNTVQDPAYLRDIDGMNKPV
# experimental_protocol: Inhibition of human kappa opioid receptor expressed in stable HEK cells assessed as inhibition constant
# Format: cell-based
pKi: −log10 of the molar value.
property_name: pKi

compound_structure | measured
O=C(c1nnc(NC2CCCC2)c2cc(Cl)c(Cl)cc12)N1CCC(O)CC1 | 5.57

---

# assayed_system: Delta-type opioid receptor (Homo sapiens, UniProt P41143)
# Sequence (P41143 whole entry): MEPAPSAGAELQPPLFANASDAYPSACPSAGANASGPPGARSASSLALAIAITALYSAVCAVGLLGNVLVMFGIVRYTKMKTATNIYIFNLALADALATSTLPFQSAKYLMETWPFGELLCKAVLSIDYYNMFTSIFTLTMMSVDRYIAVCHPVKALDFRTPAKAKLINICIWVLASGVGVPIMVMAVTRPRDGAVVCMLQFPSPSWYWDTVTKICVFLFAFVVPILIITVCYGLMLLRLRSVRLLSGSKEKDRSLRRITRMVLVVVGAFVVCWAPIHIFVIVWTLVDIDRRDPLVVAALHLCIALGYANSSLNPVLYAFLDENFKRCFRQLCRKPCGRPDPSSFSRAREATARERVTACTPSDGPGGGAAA
# experimental_protocol: Inhibition of human Delta-type opioid receptor assessed as inhibition constant
pKi: −log10 of the molar value.

compound_structure | pKi
Clc1cc2c(NC3CCCC3)nnc(-c3ccncc3)c2cc1Cl | 5.05

---

# experimental_protocol: Inhibition of Rat GABAA assessed as inhibition constant in the presence of PBR
pKi: −log10 of the molar value.

compound_structure | pKi
O=C(c1nnc(NC2CCCC2)c2cc(Cl)c(Cl)cc12)N1CCC(O)CC1 | 5.96
